# Tested on: A549/ATCC NSCLC
# testMethodNotes: NCI-60 one-dose screen, 48 h (100 = growth as untreated, 0 = no growth, -100 = all killed)
# protocolConditions: 10 µM unless noted
About 83,000 compounds went through this panel and 20% of them were active in at least one assay; those are over-represented in the sample as a whole.
Field 'label' (enum: yes (1) / no (0)). Set to yes (1) when growth is strictly under 70%; else no (0).

INSERT INTO assay_data (molecule, categorylabel) VALUES
  ('Cc1ccc(C(=O)C[n+]2cccc3c4ccccc4ccc32)cc1', 'yes (1)'),
  ('O=C(Nc1ccc(Cl)c(C(F)(F)F)c1)N1CCN(c2cc(-c3cn(-c4ccccc4)nc3-c3cccc(O)c3)ccn2)CC1', 'yes (1)'),
  ('CCCCCCCCCc1ccc(C(=O)Nc2cc(C)ccc2C(=O)OC)cc1', 'no (0)'),
  ('CS(=O)(=O)Nc1cc(-c2ccc3ncnc(N4CCc5cc(F)c(Cl)cc54)c3c2)cnc1Cl', 'yes (1)'),
  ('Cc1ccc(Cl)cc1NC(=O)N/C(N)=N/c1nc2ccccc2s1', 'yes (1)'),
  ('Cc1cc(Cl)ccc1NC(=O)Nc1ccc(-c2ccc3c(c2)NC(=O)/C3=C\c2ccc[nH]2)cc1', 'no (0)'),
  ('O=C1c2cccc3c(N4CCN(c5ccccc5)CC4)ccc(c23)C(=O)N1c1cccc(-c2nn(-c3ccccc3)cc2-c2nc3ccccc3s2)c1', 'no (0)'),
  ('Cc1cc(C(NC(=O)CCCCCNc2cccc3c2C(=O)N(C2CCC(=O)CC2=O)C3=O)c2cccc(N(C)C)c2)c(O)c2ncccc12 (configuration not stated)', 'yes (1)');

Data request: Record CCCCCCCCc1ccc(C(=O)Nc2cccc(O)c2)cc1 : is its growth strictly below 70%?
Data returned: no (0)

Data request: Record Oc1cncc(-c2ccc3ncnc(N4CCc5cc(F)c(Cl)cc54)c3c2)c1 : is its growth strictly below 70%?
Data returned: yes (1)

Data request: Record O=C(CSc1nc2c(c(=O)[nH]1)CCCC2)Nc1ccccc1C(=O)O : is its growth strictly below 70%?
Data returned: no (0)

Data request: Record Cn1cc(-c2cc3nc(-c4c[nH]c5ccccc45)cc(N)n3n2)c2ccccc21 : is its growth strictly below 70%?
Data returned: yes (1)

Data request: Record COc1ccc2[nH]cc(-c3cc4nc(-c5cn(C)c6ncccc56)cc(N)n4n3)c2c1 : is its growth strictly below 70%?
Data returned: yes (1)

Data request: Record CC(=O)Nc1ccc(S(=O)(=O)Nc2ccc(-c3ccc4c(c3)NC(=O)/C4=C\c3ccc[nH]3)cc2)cc1 : is its growth strictly below 70%?
Data returned: no (0)

Data request: Record COc1cc(C2C(C(=O)OCc3ccccc3)=C(C)Nc3nc4ccccc4n32)cc(OC)c1OC (configuration not stated) : is its growth strictly below 70%?
Data returned: yes (1)

* * *

# Test system: NCI/ADR-RES ovarian
# testMethodNotes: NCI-60 one-dose screen, 48 h
# protocolConditions: 10 µM unless noted
Compounds without any hit were thinned out: in the full panel of roughly 83,000, 20% have a hit. Activity calls are given as the source filed them. Rule for the calls: active = growth percent below 10; inactive = the rest.
Hello, when you answer, please use one of the following outcomes: active, inactive

INSERT INTO measurements (molecule, testtarget, categorylabel) VALUES
  ('c1n[nH]cc1-c1nc2ccc3[nH]ncc3c2c2c1CC1(CCOCC1)CC2', 'NCI/ADR-RES ovarian', 'inactive'),
  ('COc1ccc(C(=O)C[n+]2cccc3c4ccccc4ccc32)cc1', 'NCI/ADR-RES ovarian', 'inactive'),
  ('C[C@@H](Nc1c(C#N)cnc2ccc(-c3cnc4[nH]ncc4c3)cc12)c1ccccc1', 'NCI/ADR-RES ovarian', 'inactive'),
  ('CNc1nc2ccccc2n2c(-c3ccc(O)c(O)c3)cnc12', 'NCI/ADR-RES ovarian', 'active'),
  ('Cc1ccc(S(=O)(=O)Nc2ccc(-c3ccc4c(c3)NC(=O)/C4=C\c3ccc[nH]3)cc2)cc1', 'NCI/ADR-RES ovarian', 'inactive');

Data request: What did this assay record as the result for N#CC1=C(c2ccco2)Nc2c(c(-c3ccccc3)nn2-c2ccccc2)C12C(=O)Nc1ccc(Cl)cc12 (stereo not given) ?
Data returned: active

Data request: What did this assay record as the result for Cc1ccc2nc(COc3ccc(C(=O)NNC(=O)Nc4ccc(Cl)c(C(F)(F)F)c4)cc3)[nH]c2c1 ?
Data returned: inactive

Data request: What did this assay record as the result for O=C(N/N=C/c1ccoc1)c1[nH]c2ccc(Br)cc2c1-c1ccccc1 ?
Data returned: active

Data request: What did this assay record as the result for COc1ccc(NC(=O)NN2C(=O)c3ccccc3N(C)C2c2ccc(OC)cc2)cc1 (stereo not given) ?
Data returned: inactive

Data request: What did this assay record as the result for C#CCCCNCCNc1ccnc2cc(Cl)ccc12 ?
Data returned: inactive

* * *

# Tested on: K-562 leukemia
# testMethodNotes: NCI-60 one-dose screen, 48 h
# protocolConditions: 10 µM unless noted
Compounds without any hit were thinned out: in the full panel of roughly 83,000, 20% have a hit. Activity calls are given as the source filed them. How the source made its calls: active means growth percent below 10; inactive means the rest.
Hello, when you answer, please use one of the following outcomes: y for active, n for inactive

Consider the worked cases shown below.
INSERT INTO results (compound, categorylabel) VALUES
  ('CCCCN1C(=O)/C(=C\C(=O)c2cc3ccccc3oc2=O)c2ccccc21', 'y'),
  ('COc1ccc2[nH]c(O)c(N=Nc3nc(-c4ccccc4)cs3)c2c1', 'n'),
  ('Clc1ccc(-c2nc3ccc(-c4nnc(SCc5ccccc5)o4)cc3[nH]2)cc1', 'n'),
  ('O=c1[nH]c2ccccc2cc1COc1ccc(Nc2nccc(-c3ccc(Cl)cc3)n2)cc1', 'n'),
  ('COc1cc2cc(C(=O)N3C[C@@H](CCl)c4c3cc(OC(=O)N(CCC(=O)N3CCN(C)CC3)C3CCCCC3)c3ccccc43)[nH]c2c(OC)c1OC', 'y'),
  ('COc1cc(C2CC(c3ccc(F)cc3)=Nc3c(N)nc(N)nc3N2)ccc1Oc1nc(Nc2ccc(F)cc2)nc(N(C)C)n1 (stereo not drawn)', 'n');

Data request: What did this assay record as the result for N#C/C(=C/c1ccc(Cl)cc1)c1nnc(NC(=O)c2ccc(-n3c(=O)[nH]c4ccccc4c3=O)cc2)s1 ?
Data returned: n

Data request: What did this assay record as the result for CCOc1ccccc1[C@H]1C(C(=O)c2ccc(Cl)cc2)C2(N[C@@H]1c1ccccc1)C(=O)Nc1ccc(Br)cc12 (stereo partly drawn) ?
Data returned: y

* * *

# System: OVCAR-5 ovarian
# testMethodNotes: NCI-60 one-dose screen, 48 h (100 = growth as untreated, 0 = no growth, -100 = all killed)
# protocolConditions: 10 µM unless noted
About 83,000 compounds went through this panel and 20% of them were active in at least one assay; those are over-represented in the sample as a whole. The source made the active and inactive calls. Rule for the calls: active = growth percent below 10; inactive = the rest.
# growth values compiled below

Look over these answered cases.
INSERT INTO measurements (molecule, datavalue) VALUES
  ('Nc1nn2c(-c3cc4cc(Br)ccc4oc3=O)ccnc2c1N=Nc1ccccc1', '16.8% (inactive)'),
  ('N/C(=N\c1nc2ccccc2s1)NC(=O)Nc1ccccc1[N+](=O)[O-]', '10.9% (inactive)'),
  ('CCCCCCCCc1cccc(CC(=O)Nc2ccc(C)cc2C(=O)O)c1', '75.6% [25 µM] (inactive)'),
  ('N#CC1=C(c2ccco2)Nc2c(c(-c3ccccc3)nn2-c2ccccc2)C12C(=O)Nc1ccc(Cl)cc12 (stereo not given)', '53.5% (inactive)');

Pending molecule:
Data request: For the record CCOC(=O)/C(F)=C/C1CC1C1CCN(C(=O)OC(C)(C)C)CC1 (stereo not given) , what value of growth is listed for OVCAR-5 ovarian?
Data returned: 111% (inactive)

* * *

# System: A549/ATCC NSCLC
# testMethodNotes: NCI-60 one-dose screen, 48 h (100 = growth as untreated, 0 = no growth, -100 = all killed)
# protocolConditions: 10 µM unless noted
Compounds without any hit were thinned out: in the full panel of roughly 83,000, 20% have a hit.
readout: growth (%)
Kindly provide the numeric value in % only, without the unit symbol.

Look over these answered cases.
INSERT INTO assay_data (compound, units, datavalue) VALUES
  ('COc1ccc(N=Nc2c(N)nn3c(N)c(C#N)c(-c4ccc(F)cc4)nc23)cc1', '%', 86.8),
  ('CCN1C(=O)N(CC)C2NNC(Sc3c(C(=O)O)c4ccccc4n(CC(C)C)c3=O)=NC21 (configuration not stated)', '%', 20.9),
  ('COc1ccc(N=Nc2c(N)nn3c(-c4ccc5c(c4)C=S=C5)ccnc23)cc1', '%', 43),
  ('Nc1nnc(-c2cncc(Br)c2)c(-c2c[nH]c3ccc(Br)cc23)n1', '%', 49.2),
  ('CN1C(=O)/C(=C/c2ccco2)S/C1=N/c1nccs1', '%', 107),
  ('O=C(NC(=S)N1CCN(c2ncnc3c2cnn3-c2ccccc2)CC1)c1ccc(Br)cc1', '%', 80.6),
  ('COc1cc(/C=C/C(=O)c2ccc(S(=O)(=O)NCCNc3nc(N(C)C)nc(N4CCOCC4)n3)cc2)cc(OC)c1OC', '%', 26.5),
  ('Clc1ccc(CNc2nc(SCCN3CCOCC3)nc3c2cnn3CC(Cl)c2ccc(Br)cc2)cc1 (configuration not stated)', '%', 23.4);

Data request: Query (compound): COc1cc(CNC(=O)[C@]23CCC(C)(C)CC2C2=CCC4[C@@]5(C)CCC(OC(C)=O)C(C)(C)C5CC[C@@]4(C)[C@]2(C)CC3)ccc1OCc1cn(-c2ccc(Cl)cc2Cl)nn1 (some centres not stated) ; field requested: growth
Data returned: 93.1

Data request: Query (compound): CN(C)c1nc(NCCNS(=O)(=O)c2ccc(C(=O)/C=C/c3ccccc3)cc2)nc(N2CCOCC2)n1 ; field requested: growth
Data returned: 78.8

Data request: Query (compound): N#Cc1cc(-c2ccc3ncnc(N4CCc5cc(F)c(Cl)cc54)c3c2)cnc1N ; field requested: growth
Data returned: 42

Data request: Query (compound): CCN1C(=O)N(CC)C2NNC(Sc3c(C(=O)O)c4ccccc4n(CCC(C)C)c3=O)=NC21 (configuration not stated) ; field requested: growth
Data returned: 12.4

Data request: Query (compound): COc1ccc2c(c1)C(Sc1ccc(F)cc1)c1c(nc(N)c(C#N)c1N)O2 (configuration not stated) ; field requested: growth
Data returned: 96.2

Data request: Query (compound): CCOc1ccc2[nH]c(=O)c(C(c3nnnn3CC3CCCO3)N3CCN(Cc4ccccc4)CC3)cc2c1 (configuration not stated) ; field requested: growth
Data returned: 92.7

Data request: Query (compound): Cn1cc(-c2cc(N)n3nc(-c4c[nH]c5ccccc45)cc3n2)c2ccccc21 ; field requested: growth
Data returned: -75.2

Data request: Query (compound): CC1CCc2c(sc3nc(SCC(=O)c4cccc([N+](=O)[O-])c4)n(-c4ccccc4)c(=O)c23)C1 (configuration not stated) ; field requested: growth
Data returned: 89.7

Data request: Query (compound): CC[C@]12C=CCN3CC[C@]4(C(=C(C(=O)OC)C1)Nc1cc(OC)c([C@@H]5[C@H]6O[C@H]6[C@@]6(CC)CC(C(=O)OC)=C7Nc8cc(O)ccc8[C@@]78CCN5[C@@H]68)cc14)[C@@H]32 ; field requested: growth
Data returned: 17.2

This collection of values is drawn from PubChem BioAssay (NCI).
